# Target Under Test: soluble guanylate cyclase (sGC) (Rattus norvegicus, UniProt P20595)
# Construct: endogenous in cells; host or cells: primary rat aortic smooth muscle cells
# Sequence (P20595 1-619): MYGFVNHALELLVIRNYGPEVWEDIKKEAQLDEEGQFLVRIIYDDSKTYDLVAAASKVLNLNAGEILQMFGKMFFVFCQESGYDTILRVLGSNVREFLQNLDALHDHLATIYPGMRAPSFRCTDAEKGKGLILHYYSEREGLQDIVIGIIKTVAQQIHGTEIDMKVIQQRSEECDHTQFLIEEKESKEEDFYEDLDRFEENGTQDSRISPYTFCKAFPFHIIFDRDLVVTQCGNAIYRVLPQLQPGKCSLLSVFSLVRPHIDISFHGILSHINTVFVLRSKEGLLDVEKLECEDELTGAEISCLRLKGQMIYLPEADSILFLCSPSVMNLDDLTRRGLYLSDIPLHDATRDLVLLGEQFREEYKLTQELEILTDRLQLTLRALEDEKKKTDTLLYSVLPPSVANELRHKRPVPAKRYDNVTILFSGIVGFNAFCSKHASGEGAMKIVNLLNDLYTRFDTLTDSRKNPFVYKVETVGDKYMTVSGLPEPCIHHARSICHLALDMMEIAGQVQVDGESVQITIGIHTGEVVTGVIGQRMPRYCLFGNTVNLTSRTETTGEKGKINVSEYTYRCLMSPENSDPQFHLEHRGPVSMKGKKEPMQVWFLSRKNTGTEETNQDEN
# Sequence (P19686 1-690 partner): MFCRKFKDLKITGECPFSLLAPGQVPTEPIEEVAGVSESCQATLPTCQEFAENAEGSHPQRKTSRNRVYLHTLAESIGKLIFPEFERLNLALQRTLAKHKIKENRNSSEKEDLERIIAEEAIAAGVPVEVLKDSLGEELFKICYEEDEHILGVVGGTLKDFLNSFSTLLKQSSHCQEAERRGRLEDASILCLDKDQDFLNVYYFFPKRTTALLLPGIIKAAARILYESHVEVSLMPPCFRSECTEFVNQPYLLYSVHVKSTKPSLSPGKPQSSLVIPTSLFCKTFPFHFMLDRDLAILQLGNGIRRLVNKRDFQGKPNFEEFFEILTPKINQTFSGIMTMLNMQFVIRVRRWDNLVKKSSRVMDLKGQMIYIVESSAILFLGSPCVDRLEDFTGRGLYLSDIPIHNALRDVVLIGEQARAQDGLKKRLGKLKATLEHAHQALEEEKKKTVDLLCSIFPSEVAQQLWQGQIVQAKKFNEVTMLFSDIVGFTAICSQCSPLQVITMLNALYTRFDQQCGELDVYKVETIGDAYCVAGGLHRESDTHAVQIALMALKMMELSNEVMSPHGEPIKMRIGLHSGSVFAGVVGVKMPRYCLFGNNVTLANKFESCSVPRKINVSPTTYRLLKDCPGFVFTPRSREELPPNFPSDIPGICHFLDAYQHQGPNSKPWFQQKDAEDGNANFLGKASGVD
# Assay Overview: Biological cellular assay: sGC activity by phosphorylation of VASP in rat aortic smooth muscle cells
# Assay type: cell-based
# Details: primary rat aortic smooth muscle cells, pre-incubated with 10 μM ODQ, 30 min at 37° C., phospho-VASP (pSer239) fluorescent signal; read-out: Cell assay pEC50 (converted)
Counter-ions that a name gives are not always drawn.
For each of the compounds below, state its EC50.
Value expressed in nM; do not type the unit.

EC50 measured on Cc1nc(C2CCN(CC#N)CC2)ccc1COc1c(F)cc(F)cc1-c1cccc(N2CCC(C(=O)O)CC2)n1 [Example 27, Sodium salt] = 39.8

EC50 measured on Cc1nc(C2CCN(CC3CCOC3)CC2)ccc1COc1c(F)cc(F)cc1-c1cccc(N2CCC(C(=O)O)CC2)n1 (stereo not shown) = 251

EC50 measured on Cc1nc(C2CCN(C3COC3)CC2)ccc1COc1c(F)cc(F)cc1-c1cccc(N2CCC(C(=O)O)CC2)n1 = 79.4

EC50 measured on O=C(O)C1CCN(c2cccc(-c3cc(F)cc(F)c3OCc3ccc(C4CCN(CC(F)(F)F)CC4)cc3OC3COC3)n2)CC1 [Example 90, Sodium salt] = 1.26
